These data points were gathered from patent US20120004166A1.

# experimental.target: GPCR GPR40 (Rattus norvegicus)
# Sequence (Q8K3T4 whole entry): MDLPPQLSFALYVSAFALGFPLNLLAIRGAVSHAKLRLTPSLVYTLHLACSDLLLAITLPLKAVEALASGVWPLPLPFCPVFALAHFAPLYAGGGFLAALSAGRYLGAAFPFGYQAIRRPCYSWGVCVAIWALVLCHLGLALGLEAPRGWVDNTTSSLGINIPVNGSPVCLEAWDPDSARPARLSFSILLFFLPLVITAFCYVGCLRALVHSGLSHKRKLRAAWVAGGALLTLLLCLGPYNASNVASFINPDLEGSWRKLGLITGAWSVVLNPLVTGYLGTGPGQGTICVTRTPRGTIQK
# measurement.notes: In vitro FLIPR assay with recombinant cells which express the GPCR GPR40
# applied.conditions: recombinant HEK293 cells expressing rat GPR40; agonist-induced change in intracellular Ca2+ (Fluo-4, FLIPR); 100% = 10 μM linoleic acid
test.readout: EC50
Please provide the amount together with its unit, number first.

*Q* Fill in the blank: the reported EC50 of CC#CC(CC(=O)O)c1ccc(OCCC(C)Oc2ccc(C(F)(F)F)cc2)cc1 (single isomer, unassigned) [Example 24] is ____.
*A* 980 nM

*Q* Fill in the blank: the reported EC50 of CC#CC(CC(=O)O)c1ccc(OCCOc2ccccc2Cl)cc1 (stereo not drawn) [Example 19] is ____.
*A* 180 nM

*Q* Fill in the blank: the reported EC50 of CC#CC(CC(=O)O)c1ccc(OCC[C@@H](C)Oc2ccc(C(F)(F)F)cc2Cl)cc1 (stereo partly drawn) [Example 31] is ____.
*A* 640 nM

*Q* Fill in the blank: the reported EC50 of CC#CC(CC(=O)O)c1ccc(OCC(CCC)COc2cccc(C(C)(C)C)c2)cc1 (stereo not drawn) [Example 45] is ____.
*A* 6850 nM

*Q* Fill in the blank: the reported EC50 of CC#CC(CC(=O)O)c1ccc(OCC[C@H](C)Oc2cccc(C)c2)cc1 (stereo partly drawn) [Example 28] is ____.
*A* 50 nM

*Q* Fill in the blank: the reported EC50 of CC#CC(CC(=O)O)c1ccc(OCCC(C)Oc2cccc(C)c2)cc1 (stereo not drawn) [Example 26] is ____.
*A* 50 nM

*Q* Fill in the blank: the reported EC50 of CC#CC(CC(=O)O)c1ccc(OCC(COc2cccc(C(C)(C)C)c2)c2ccccc2)cc1 (stereo not drawn) [Example 47] is ____.
*A* 8740 nM

*Q* Fill in the blank: the reported EC50 of CC#CC(CC(=O)O)c1ccc(OCCOc2cccc(Cl)c2)cc1 (stereo not drawn) [Example 13] is ____.
*A* 40 nM

*Q* Fill in the blank: the reported EC50 of CC#CC(CC(=O)O)c1ccc(OCCOc2cccc(C(F)(F)F)c2)cc1 (stereo not drawn) [Example 15] is ____.
*A* 60 nM

*Q* Fill in the blank: the reported EC50 of CC#CC(CC(=O)O)c1ccc(OCC(C)COc2ccc(Br)c(Cl)c2)cc1 (stereo not drawn) [Example 40] is ____.
*A* 830 nM

*Q* Fill in the blank: the reported EC50 of CC#CC(CC(=O)O)c1ccc(OCCOc2ccccc2OC)cc1 (stereo not drawn) [Example 21] is ____.
*A* 800 nM

*Q* Fill in the blank: the reported EC50 of CC#CC(CC(=O)O)c1ccc(OCCOc2ccc(C(F)(F)F)nc2)cc1 (stereo not drawn) [Example 10] is ____.
*A* 550 nM

*Q* Fill in the blank: the reported EC50 of CC#CC(CC(=O)O)c1ccc(OCCCOc2cccc(C(C)(C)C)c2)cc1 (stereo not drawn) [Example 1] is ____.
*A* 440 nM

*Q* Fill in the blank: the reported EC50 of CC#CC(CC(=O)O)c1ccc(OCC(COc2ccc(C(F)(F)F)cc2Cl)OCc2ccccc2)cc1 (stereo not drawn) [Example 48] is ____.
*A* 7500 nM

*Q* Fill in the blank: the reported EC50 of CC#CC(CC(=O)O)c1ccc(OCC(CC)COc2cccc(C(C)(C)C)c2)cc1 (stereo not drawn) [Example 43] is ____.
*A* 2030 nM

*Q* Fill in the blank: the reported EC50 of CC#CC(CC(=O)O)c1ccc(OCC(COC)COc2ccc(C#N)c(Cl)c2)cc1 (stereo not drawn) [Example 50] is ____.
*A* 550 nM

*Q* Fill in the blank: the reported EC50 of CC#CC(CC(=O)O)c1ccc(OCCCOc2ccc(C(F)(F)F)nc2)cc1 (stereo not drawn) [Example 8] is ____.
*A* 350 nM

*Q* Fill in the blank: the reported EC50 of CC#CC(CC(=O)O)c1ccc(OCCOc2ccc(C(C)(C)C)cc2)cc1 (stereo not drawn) [Example 16] is ____.
*A* 610 nM
